Protocol Details: Pharmacokinetics of intramuscular injection of Compound 21 and prodrug thereof in rats
Measurement Context: SD, in vivo, im, 40 umol/kg, rat, Compound 21 itself dosed at 40 μmol/kg, sesame oil suspension, read-out: Cmax
Metric: Cmax (nM)

[[record]]
molecule = "C[C@@]12CCCCC[C@@H](Cc3c(F)cc(O)cc31)[C@@H]2N [Compound 21]"
val = 1750


###

Assay System: κ opioid receptor (Homo sapiens, UniProt P41145)
Sequence (P41145 whole entry): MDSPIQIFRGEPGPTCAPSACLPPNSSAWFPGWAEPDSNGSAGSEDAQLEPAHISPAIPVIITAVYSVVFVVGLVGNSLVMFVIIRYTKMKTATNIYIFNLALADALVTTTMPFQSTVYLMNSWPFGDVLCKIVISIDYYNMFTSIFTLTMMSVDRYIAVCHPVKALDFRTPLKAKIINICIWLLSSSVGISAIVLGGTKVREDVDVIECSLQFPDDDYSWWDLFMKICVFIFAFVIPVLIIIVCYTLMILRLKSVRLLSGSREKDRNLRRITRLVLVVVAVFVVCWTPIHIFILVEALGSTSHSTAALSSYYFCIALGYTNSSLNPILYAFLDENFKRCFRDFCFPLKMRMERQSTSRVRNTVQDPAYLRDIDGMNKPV
Protocol Details: FLIPR intracellular calcium signal test, HEK293-κ cells
Measurement Context: IC50 (inhibition) test against EC80 of positive agonist, read-out: Kapp receptor IC50
Counter-ions that a name gives are not always drawn.
Catalogue of IC50 readings, one per entry.
Metric: IC50

[[record]]
compound = "CC12CCCCC(Cc3c(F)cc(O)cc31)C2N (single isomer, unassigned) [Compound 33]"
metric = "IC50"
val = "0.1 to 1 µM"

[[record]]
compound = "CC12CCCCCC(Cc3c(CO)cc(O)cc31)C2N (centres unmarked) [Compound 18]"
metric = "IC50"
val = "> 100 µM"

[[record]]
compound = "CC12CCCCCC(Cc3ccc(O)c(F)c31)C2N (centres unmarked) [Compound 4]"
metric = "IC50"
val = "1 to 10 µM"

[[record]]
compound = "C[C@]12CCCCC[C@H](Cc3c(Cl)cc(O)cc31)[C@H]2N [Compound 24]"
metric = "IC50"
val = "1 to 10 µM"

[[record]]
compound = "CC(C)c1cc(O)cc2c1CC1CCCCCC2(C)C1N (centres unmarked) [Compound 10]"
metric = "IC50"
val = "10 to 100 µM"

[[record]]
compound = "CC12CCCCCC(Cc3ccc(O)cc31)C2N (centres unmarked) [Compound 2, reference compound]"
metric = "IC50"
val = "1 to 10 µM"

[[record]]
compound = "CC12CCCCCC(Cc3cc(O)c(O)cc31)C2N (centres unmarked) [Compound 5]"
metric = "IC50"
val = "10 to 100 µM"

[[record]]
compound = "COc1cc(O)cc2c1CC1CCCCCC2(C)C1N (centres unmarked) [Compound 7]"
metric = "IC50"
val = "1 to 10 µM"

[[record]]
compound = "CC(C)c1cc2c(cc1O)C1(C)CCCCCC(C2)C1N (centres unmarked) [Compound 13]"
metric = "IC50"
val = "10 to 100 µM"

[[record]]
compound = "CC12CCCCCC(Cc3cc(F)c(O)cc31)C2N (centres unmarked) [Hydrochloride of Compound 17]"
metric = "IC50"
val = "10 to 100 µM"

[[record]]
compound = "C[C@@]12CCOCC[C@@H](Cc3ccc(O)cc31)[C@@H]2N [Compound 25]"
metric = "IC50"
val = "1 to 10 µM"

[[record]]
compound = "CC12CCCCCC(Cc3cc(Br)c(O)cc31)C2N (centres unmarked) [Compound 12]"
metric = "IC50"
val = "> 100 µM"

[[record]]
compound = "C[C@]12CCCCC[C@@H](Cc3c(Cl)cc(O)cc31)[C@@H]2N [Compound 23]"
metric = "IC50"
val = "1 to 10 µM"

[[record]]
compound = "CC12CCCCCC(Cc3c(-c4ccccc4)cc(O)cc31)C2N (centres unmarked) [Compound 11]"
metric = "IC50"
val = "> 100 µM"

[[record]]
compound = "Cc1cc(O)cc2c1CC1CCCCCC2(C)C1N (centres unmarked) [Compound 1]"
metric = "IC50"
val = "0.1 to 1 µM"

[[record]]
compound = "CCCC12CCCCC(Cc3c(F)cc(O)cc31)C2N (centres unmarked) [Compound 30]"
metric = "IC50"
val = "0.1 to 1 µM"

[[record]]
compound = "CC(C)CC12CCCCC(Cc3c(F)cc(O)cc31)C2N (centres unmarked) [Compound 31]"
metric = "IC50"
val = "10 to 100 µM"

[[record]]
compound = "CC12CCCCCC(Cc3cc(Cl)c(O)c(Cl)c31)C2N (centres unmarked) [Compound 20]"
metric = "IC50"
val = "10 to 100 µM"

[[record]]
compound = "CCc1cc(O)cc2c1CC1CCCCCC2(C)C1N (centres unmarked) [Compound 9]"
metric = "IC50"
val = "1 to 10 µM"

[[record]]
compound = "C[C@@]12CCCCC[C@@H](Cc3c(F)cc(O)cc31)[C@@H]2N [Compound 21]"
metric = "IC50"
val = "1 to 10 µM"


###

Protocol Details: Pharmacokinetics of intramuscular injection of Compound 21 and prodrug thereof in rats
Measurement Context: SD, in vivo, im, 20 umol/kg, rat, carboxylic diester prodrug 20 μmol/kg, analyte: prodrug itself, read-out: Tmax of the prodrug
Metric: Tmax (min)

[[record]]
molecule = "C[C@@]12CCCCC[C@@H](Cc3c(F)cc(OC(=O)CCCCC(=O)Oc4cc(F)c5c(c4)[C@@]4(C)CCCCC[C@@H](C5)[C@@H]4N)cc31)[C@@H]2N [Compound 34]"
metric = "Tmax"
val = 15


###

Protocol Details: Pharmacokinetic study of intravenous injection in rats
Measurement Context: SD, rat, plasma, 1 mg/kg
Metric: clearance (mL/min/kg)

[[record]]
compound = "C[C@@]12CCCCC[C@@H](Cc3ccc(O)cc31)[C@@H]2N (relative stereo)"
metric = "clearance"
val = 139

[[record]]
compound = "C[C@]12CCCCC[C@@H](Cc3c(Cl)cc(O)cc31)[C@@H]2N"
metric = "clearance"
val = 165

[[record]]
compound = "C[C@@]12CCCCC[C@@H](Cc3c(F)cc(O)cc31)[C@@H]2N"
metric = "clearance"
val = 155


###

Assay System: μ opioid receptor (Homo sapiens)
Sequence (P35372 whole entry): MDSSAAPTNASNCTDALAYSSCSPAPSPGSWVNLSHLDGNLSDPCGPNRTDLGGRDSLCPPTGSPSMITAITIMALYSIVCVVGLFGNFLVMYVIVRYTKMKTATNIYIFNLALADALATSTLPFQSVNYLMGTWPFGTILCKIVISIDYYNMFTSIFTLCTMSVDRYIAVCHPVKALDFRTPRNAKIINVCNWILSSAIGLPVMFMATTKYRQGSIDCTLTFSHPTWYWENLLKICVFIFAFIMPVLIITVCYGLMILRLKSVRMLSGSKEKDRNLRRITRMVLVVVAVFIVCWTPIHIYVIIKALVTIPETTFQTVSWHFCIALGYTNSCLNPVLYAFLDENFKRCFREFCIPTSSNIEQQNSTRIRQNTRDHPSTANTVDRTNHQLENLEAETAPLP
Protocol Details: FLIPR intracellular calcium signal test, HEK293-μ cells
Measurement Context: EC50 (activation) test, read-out: Mu receptor EC50
Structures can show the parent of a compound that is named as a salt.
Catalogue of EC50 readings, one per entry.
Metric: EC50

[[record]]
molecule = "C[C@]12CCCCC[C@H](Cc3c(Cl)cc(O)cc31)[C@H]2N"
assay_system = "μ opioid receptor (Homo sapiens)"
metric = "EC50"
val = "10 to 100 µM"

[[record]]
molecule = "C[C@@]12CCOCC[C@@H](Cc3ccc(O)cc31)[C@@H]2N"
assay_system = "μ opioid receptor (Homo sapiens)"
metric = "EC50"
val = "0.1 to 1 µM"

[[record]]
molecule = "CC12CCCCCC(Cc3cc(C4CC4)c(O)cc31)C2N (centres unmarked)"
assay_system = "μ opioid receptor (Homo sapiens)"
metric = "EC50"
val = "> 100 µM"

[[record]]
molecule = "CC12CCCCCC(Cc3cc(Cl)c(O)c(Cl)c31)C2N (centres unmarked)"
assay_system = "μ opioid receptor (Homo sapiens)"
metric = "EC50"
val = "> 100 µM"

[[record]]
molecule = "CC12CCOCCC(Cc3ccc(O)cc31)C2N (centres unmarked)"
assay_system = "μ opioid receptor (Homo sapiens)"
metric = "EC50"
val = "0.1 to 1 µM"

[[record]]
molecule = "CC(C)c1cc2c(cc1O)C1(C)CCCCCC(C2)C1N (centres unmarked)"
assay_system = "μ opioid receptor (Homo sapiens)"
metric = "EC50"
val = "10 to 100 µM"

[[record]]
molecule = "C[C@]12CCOCC[C@H](Cc3ccc(O)cc31)[C@H]2N"
assay_system = "μ opioid receptor (Homo sapiens)"
metric = "EC50"
val = "> 100 µM"

[[record]]
molecule = "CC12CCCCC(Cc3c(F)cc(O)cc31)C2N (single isomer, unassigned) [Compound 33]"
assay_system = "μ opioid receptor (Homo sapiens)"
metric = "EC50"
val = "0.1 to 1 µM"

[[record]]
molecule = "CC(C)CC12CCCCC(Cc3c(F)cc(O)cc31)C2N (centres unmarked)"
assay_system = "μ opioid receptor (Homo sapiens)"
metric = "EC50"
val = "10 to 100 µM"

[[record]]
molecule = "CC12CCCCCC(Cc3cc(Cl)c(O)cc31)C2N (centres unmarked) [Hydrochloride of Compound 16]"
assay_system = "μ opioid receptor (Homo sapiens)"
metric = "EC50"
val = "10 to 100 µM"

[[record]]
molecule = "CC12CCCCCC(Cc3c(O)cc(O)cc31)C2N (centres unmarked)"
assay_system = "μ opioid receptor (Homo sapiens)"
metric = "EC50"
val = "> 100 µM"


###

Catalogue of pIC50 readings, one per entry.
Assay System: μ opioid receptor (Homo sapiens)
Protocol Details: FLIPR intracellular calcium signal test, HEK293-μ cells
Measurement Context: IC50 (inhibition) test against EC80 of positive agonist, read-out: Mu receptor IC50
pIC50: −log10 of the molar value.
Metric: pIC50

[[record]]
molecule = "CC(C)CC12CCCCC(Cc3c(F)cc(O)cc31)C2N (stereo not drawn)"
assay_system = "μ opioid receptor (Homo sapiens)"
metric = "pIC50"
val = "4.00 to 5.00"

[[record]]
molecule = "C[C@]12CCCCC[C@H](Cc3c(Cl)cc(O)cc31)[C@H]2N"
assay_system = "μ opioid receptor (Homo sapiens)"
metric = "pIC50"
val = "6.00 to 7.00"

[[record]]
molecule = "CC12CCCCCC(Cc3c(O)cc(O)cc31)C2N (stereo not drawn)"
assay_system = "μ opioid receptor (Homo sapiens)"
metric = "pIC50"
val = "5.00 to 6.00"

